- protocol.summary: in vitro
- condition.label: human
measurement.kind: CC50 (µM)

[[record]]
molecule = "COc1ccc2[nH]c([S+]([O-])Cc3ncc(C)c(OC)c3C)nc2n1 (stereo not shown)"
unit_abbrev = "µM"
recorded_measurement = 129


====

- protocol.summary: Prazole degradation rate: prodrug remaining in pH 5.8 buffer by 1D proton NMR
- condition.label: 2 mM prazole, 300 K, 1D proton NMR
measurement.kind: prodrug remaining at 17 hours (%)

[[record]]
molecule = "COc1ccnc(C[S+]([O-])c2nc3ccc(OC(F)F)cc3[nH]2)c1OC (stereo not shown) [Pantoprazole, pantoprazole sodium hydrate]"
measurement_kind = "prodrug remaining at 17 hours"
unit_abbrev = "%"
recorded_measurement = 96

[[record]]
molecule = "Cc1c(OCC(F)(F)F)ccnc1C[S+]([O-])c1nc2ccccc2[nH]1 (stereo not shown) [Lansoprazole, lansoprazole]"
measurement_kind = "prodrug remaining at 17 hours"
unit_abbrev = "%"
recorded_measurement = 20


Cited source for all entries: paper PMC7055211
